# assay.info: Quantitative High-Throughput drug screen in 47 multiple myeloma cell lines against the NCATS MIPE library collection: Karpas417_ECACC cell viability assay (AID 1918961)
# experimental.setup: Karpas417 myeloma viability, CellTiter-Glo ATP luminescence, 48 h
Results filed as inconclusive are left out. Calls of active or inactive are those of the source. Calls come from the whole dose curve; as a rule, active = well fitted cell-killing curve with a large enough effect; inconclusive = small, poorly fitted or top-dose-only effect, or effect the other way; inactive = no such curve, though single readings can be large or run the other way.
Outcomes: active, inactive

[[record]]
compound = "COC(=O)N1CCN(Cc2cccc(NC(=O)Nc3ccc(C)nc3)c2F)CC1"
assigned_label = "active"

[[record]]
compound = "CN[C@@H]1[C@@H](O)[C@@H](O[C@@H]2[C@@H](O)[C@H](O[C@H]3O[C@H](CN)[C@@H](O)[C@H](O)[C@@H]3O)[C@@H](N)C[C@@H]2NC(=O)[C@@H](O)CN)OC[C@]1(C)O"
assigned_label = "inactive"

[[record]]
compound = "C[C@@H]1C[C@H]2[C@@H]3CCC4=CC(=O)C=C[C@]4(C)[C@@]3(F)[C@@H](O)C[C@]2(C)[C@@]1(O)C(=O)CO"
assigned_label = "active"

[[record]]
compound = "CC(C)Oc1cc(Nc2nc(N[C@@H](C)c3ccc(F)cn3)ncc2Cl)[nH]n1"
assigned_label = "active"

[[record]]
compound = "Cc1cccc(-c2[nH]c(C(C)(C)C)nc2-c2ccc3c(c2)OCO3)n1"
assigned_label = "active"

[[record]]
compound = "CNC(=O)[C@H](CC1=CN=C2C=CCC=C12)NC(=O)[C@@H](CC(=O)NO)CC(C)C"
assigned_label = "active"

[[record]]
compound = "COc1ccc(-c2cc3nccn3c(Nc3ncccc3C(N)=O)n2)cc1OC"
assigned_label = "active"

[[record]]
compound = "Cn1c(=O)c(-c2c(Cl)cccc2Cl)cc2cnc(Nc3cccc(C(=O)O)c3)nc21"
assigned_label = "active"

[[record]]
compound = "CC(C)CNc1ccnc(NCc2csc(-c3ccccc3)n2)n1"
assigned_label = "active"

[[record]]
compound = "O=C(Nc1ncc(SCCN2CCCC2)s1)[C@]1(c2ccc(S(=O)(=O)C3CC3)cc2)C[C@@H]1C1CCCCC1"
assigned_label = "active"

[[record]]
compound = "CN(C(Cc1ccc(OS(=O)(=O)c2cccc3cnccc23)cc1)C(=O)N1CCN(c2ccccc2)CC1)S(=O)(=O)c1cccc2cnccc12 (stereo not drawn)"
assigned_label = "active"

[[record]]
compound = "CC(=O)OCC(=O)[C@@]1(O)CC[C@H]2[C@@H]3CCC4=CC(=O)C=C[C@]4(C)[C@@H]3[C@@H](O)C[C@@]21C"
assigned_label = "inactive"

[[record]]
compound = "CCNC(=O)[C@H]1O[C@@H](n2cnc3c(N)nc(NCCc4ccc(CCC(=O)O)cc4)nc32)[C@H](O)[C@H]1O"
assigned_label = "active"

